Consider the following compounds and their measured LD50 at 336 h readings.
ASSAY: Acute toxicity in BDF1 male mice (Test 3)
MEASUREMENT PARAMETERS: mouse, in vivo, po, orally or abdominally administered, observation for 14 days

COMPOUND: C[C@@H]1OCCN(c2cc(N3CCOCC3)nc(-n3cnc4ccccc43)n2)[C@H]1C (relative stereo)
QUANTITY KIND: LD50 at 336 h
RECORDED RESULT: 400 to 800 mg/kg

Input: Which measured LD50 at 336 h value corresponds to C[C@@H]1OCCN(c2nc(N3CCOCC3)nc(-n3cnc4ccccc43)n2)[C@H]1C (relative stereo) ?
Output: 400 to 800 mg/kg

----------
Test system: MCF-7 cells
QUANTITY KIND: GI50

Answered cases to consult:
COMPOUND: CN(C)c1nc(N(C)C)nc(N(C)CO)n1 [compound C, hydroxymethylpentamethylmelamine, reference compound]
RECORDED RESULT: > 50 µM
--
COMPOUND: c1ccc2c(c1)ncn2-c1nc(N2CCOCC2)nc(N2CCOCC2)n1
RECORDED RESULT: 3.3 µM

Input: What GI50 value was documented for this compound, "c1ccc2c(c1)ncn2-c1cc(N2CCOCC2)nc(-n2cnc3ccccc32)n1" ?
Output: 3.1 µM

Input: Now the same for NCCCCC1CCCN(c2nc(N3CCOCC3)nc(-n3cnc4ccccc43)n2)C1 (centres unmarked)
Output: 5.2 µM

Input: Queued: C[C@@H]1OCCN(c2cc(N3CCOCC3)nc(-n3cnc4ccccc43)n2)[C@H]1C (relative stereo)
Output: 2.2 µM

Input: Do the same for FCC1CN(c2nc(N3CCOCC3)nc(-n3cnc4ccccc43)n2)CCO1 (centres unmarked) please
Output: 3.9 µM

Input: Then "c1ccc2c(c1)ncn2-c1cc(-n2cnc3ccccc32)nc(N2CCOCC2)n1" ?
Output: 4.3 µM

Input: Request: CC1CN(c2nc(N3CCOCC3)nc(-n3cnc4ccccc43)n2)CCO1 (centres unmarked)
Output: 4.8 µM

----------
Collected GI50 values appear next to each entry.
Tested on: MCF-7 cells
Just the number please, in µM, no unit attached.

Input: // query GI50 value for entry C[C@@H]1OCCN(c2nc(N3CCOCC3)nc(-n3cnc4ccccc43)n2)[C@H]1C (relative stereo)
Output: 1.2

Input: For "Brc1c(N2CCOCC2)nc(-n2cnc3ccccc32)nc1N1CCOCC1" then?
Output: 3.6

Input: // same read-out, input: CC(C)(C)OC(=O)NCC1CN(c2cc(N3CCOCC3)nc(-n3cnc4ccccc43)n2)CCO1 (stereo not shown)
Output: 4

Input: OCC1CN(c2nc(N3CCOCC3)nc(-n3cnc4ccccc43)n2)CCO1 (stereo not shown) , same question.
Output: 5.8

Input: What would you report for c1cn(-c2nc(N3CCOCC3)nc(N3CCOCC3)n2)cn1 [compound A, reference compound] ?
Output: 20

Input: Now give it for C[C@H]1CN(c2nc(N3CCOCC3)nc(-n3cnc4ccccc43)n2)C[C@H](C)O1 (relative stereo) too.
Output: 2.3

Input: Same question, "Cc1nc2ccccc2n1-c1nc(N2CCOCC2)nc(N2C[C@@H](C)O[C@@H](C)C2)n1" this time
Output: 3.2

Input: Cool, now CCC1CN(c2nc(N3CCOCC3)nc(-n3cnc4ccccc43)n2)CCO1 (stereo not shown)
Output: 3.9

Input: Follow-up entry: "Cc1nc2ccccc2n1-c1nc(N2CCOCC2)nc(N2CCOCC2)n1"
Output: 3.7

Input: Note, next up: C[C@H]1CN(c2cc(N3CCOCC3)nc(-n3cnc4ccccc43)n2)C[C@H](C)O1 (relative stereo)
Output: 2.8

Input: Follow-up entry: "CC(=O)OC1CCN(c2nc(N3CCOCC3)nc(-n3cnc4ccccc43)n2)CC1"
Output: 6.5
